Reported CC50 by item:
Test: Cytotoxicity (CC50) in mock-infected cells, MTT assay
Format: cell-based
Conditions: human, HeLa cells (mock-infected), 50% cytotoxic concentration, read-out: CYTOTOX (CC50 μM)
Recorded Metric: CC50 (µM)

>>> reported_value("C[C@@H]1C[C@@H]1c1ccc2c(c1)O[C@]1(O)c3cccc(N)c3C(=O)[C@]21NC(=O)CN1CCC1")
27.3
>>> reported_value("C[C@H](c1ccc2c(c1)O[C@]1(O)c3cccc(N)c3C(=O)[C@]21NC(=O)c1cccc(O)n1)C1CC1")
32.3
>>> reported_value("C[C@H](c1ccc2c(c1)O[C@]1(O)c3cccc(N)c3C(=O)[C@]21NC(=O)CN1CCC1)C1CC1")
19.2
>>> reported_value("Cc1cc(S(=O)(=O)N2CCN(C)CC2)[nH]c1C(=O)NC12C(=O)c3c(N)cccc3C1(O)Oc1cc(C(C)C)ccc12 (stereo not shown)")
32.1
>>> reported_value("CCC(C)c1ccc2c(c1)OC1(O)c3cccc(N)c3C(=O)C21NC(=O)c1[nH]cc(S(C)(=O)=O)c1C (stereo not shown)")
22.4
>>> reported_value("Cc1c(C(=O)N[C@]23C(=O)c4c(N)cccc4[C@@]2(O)Oc2cc([C@H](C)C4CC4)ccc23)[nH]c(=O)n1C")
34.9
>>> reported_value("Cc1c(S(C)(=O)=O)c[nH]c1C(=O)NC12C(=O)c3c(N)cccc3C1(O)Oc1cc([C@@H]3C[C@@H]3C)ccc12 (stereo partly shown)")
37.7
>>> reported_value("C[C@H](O)[C@@H](C(=O)NC12C(=O)c3c(N)cccc3C1(O)Oc1cc([C@H](C)C3CC3)ccc12)N(C)C (stereo partly shown)")
29.2
>>> reported_value("Cc1c(S(C)(=O)=O)c[nH]c1C(=O)NC12C(=O)c3c(N)cccc3C1(O)Oc1cc([C@H]3C[C@H]3C)ccc12 (stereo partly shown)")
40.4
>>> reported_value("Cc1c(S(C)(=O)=O)c[nH]c1C(=O)N[C@]12C(=O)c3c(N)cccc3[C@@]1(O)Oc1cc([C@H]3C[C@@H]3C)ccc12")
19.8
>>> reported_value("Cc1c(S(C)(=O)=O)c[nH]c1C(=O)NC12C(=O)c3c(N)cccc3C1(O)Oc1cc([C@]3(C)C[C@@H]3C)ccc12 (stereo partly shown)")
19.1
>>> reported_value("Cc1c(S(C)(=O)=O)c[nH]c1C(=O)NC12C(=O)c3c(N)cccc3C1(O)Oc1cc(C3CCC3C)ccc12 (stereo not shown)")
12
>>> reported_value("Cc1cc(S(=O)(=O)N2CC[C@H](N(C)C)C2)[nH]c1C(=O)NC12C(=O)c3c(N)cccc3C1(O)Oc1cc([C@H]3C[C@@H]3C)ccc12 (mixture of isomers)")
12.1
